system: NCI-H2405; assay: relative viability (nuclei count vs DMSO), 5 days (fraction); higher = more cells survive; conditions: first compound 2.53 µM
Can you tell me relative viability for the items I'm about to list?
Please respond with just the number, no unit label.

Name the recorded relative viability for Nc1cccc2c1CN(C1CCC(=O)NC1=O)C2=O (centres undefined) [Lenalidomide] + O=C(c1cc(Cc2n[nH]c(=O)c3ccccc23)ccc1F)N1CCN(C(=O)C2CC2)CC1 [Olaparib] (partner 8 µM) . 0.879

Name the recorded relative viability for Nc1cccc2c1CN(C1CCC(=O)NC1=O)C2=O (centres undefined) [Lenalidomide] + Cc1cc(Nc2cc(N3CCN(C)CC3)nc(Sc3ccc(NC(=O)C4CC4)cc3)n2)n[nH]1 [Tozasertib] (partner 0.1 µM) . 0.778

Name the recorded relative viability for Nc1cccc2c1CN(C1CCC(=O)NC1=O)C2=O (centres undefined) [Lenalidomide] + COc1cccc2cc(-c3nc([C@H]4CC[C@H](C(=O)O)CC4)n4ncnc(N)c34)[nH]c12 [OSI-027] (partner 0.5 µM) . 0.588

Name the recorded relative viability for Nc1cccc2c1CN(C1CCC(=O)NC1=O)C2=O (centres undefined) [Lenalidomide] + CS(=O)(=O)N1CCN(Cc2cc3nc(-c4cccc5[nH]ncc45)nc(N4CCOCC4)c3s2)CC1 [Pictilisib] (partner 1 µM) . 0.37

###

system: HCC-15; assay: relative viability (nuclei count vs DMSO), 5 days (fraction); higher = more cells survive; conditions: first compound 20 µM
property measured: relative viability
Please respond with just the number, no unit label.

Name the recorded relative viability for Cc1csc(=NC2CCCCC2)n1/N=C/c1ccc(O)c(O)c1O [MIM1] + CC(=O)c1c(C)c2cnc(Nc3ccc(N4CCNCC4)cn3)nc2n(C2CCCC2)c1=O [Palbociclib] (partner 0.5 µM) . 0.121

Name the recorded relative viability for Cc1csc(=NC2CCCCC2)n1/N=C/c1ccc(O)c(O)c1O [MIM1] + C[C@]1(O)C[C@@H](c2nc(-c3ccc4ccc(-c5ccccc5)nc4c3)c3c(N)nccn32)C1 [Linsitinib] (partner 1 µM) . 0.211

Name the recorded relative viability for Cc1csc(=NC2CCCCC2)n1/N=C/c1ccc(O)c(O)c1O [MIM1] + CCNC(=O)c1noc(-c2cc(C(C)C)c(O)cc2O)c1-c1ccc(CN2CCOCC2)cc1 [Luminespib] (partner 0.01 µM) . 0.133

Name the recorded relative viability for Cc1csc(=NC2CCCCC2)n1/N=C/c1ccc(O)c(O)c1O [MIM1] + COc1cc2c(Oc3ccc(NC(=O)C4(C(=O)Nc5ccc(F)cc5)CC4)cc3F)ccnc2cc1OCCCN1CCOCC1 [Foretinib] (partner 0.25 µM) . 0.157

Name the recorded relative viability for Cc1csc(=NC2CCCCC2)n1/N=C/c1ccc(O)c(O)c1O [MIM1] + Cc1nc(NC(=O)N2CCC[C@H]2C(N)=O)sc1-c1ccnc(C(C)(C)C(F)(F)F)c1 [Alpelisib] (partner 2 µM) . 0.125

###

system: NCI-H2228; experiment: relative viability (nuclei count vs DMSO), 5 days (fraction); higher = more cells survive; conditions: first compound 2 µM
property measured: relative viability
Please respond with just the number, no unit label.

Give the reported relative viability for CN1CCN(CCOc2cc(OC3CCOCC3)c3c(Nc4c(Cl)ccc5c4OCO5)ncnc3c2)CC1 [Saracatinib] + CC(=O)Nc1cccc(-n2c(=O)n(C3CC3)c(=O)c3c(Nc4ccc(I)cc4F)n(C)c(=O)c(C)c32)c1 [Trametinib] (partner 0.02 µM) (system: NCI-H2228). 0.465

Give the reported relative viability for Cc1csc(=NC2CCCCC2)n1/N=C/c1ccc(O)c(O)c1O [MIM1] + Cc1nc(NC(=O)N2CCC[C@H]2C(N)=O)sc1-c1ccnc(C(C)(C)C(F)(F)F)c1 [Alpelisib] (partner 2 µM) (system: NCI-H2228). 0.666

Give the reported relative viability for CN1CCN(CCOc2cc(OC3CCOCC3)c3c(Nc4c(Cl)ccc5c4OCO5)ncnc3c2)CC1 [Saracatinib] + O=C(c1cc(Cc2n[nH]c(=O)c3ccccc23)ccc1F)N1CCN(C(=O)C2CC2)CC1 [Olaparib] (partner 8 µM) (system: NCI-H2228). 0.568

###

test system: SW 1573; assay: relative viability (nuclei count vs DMSO), 5 days (fraction); higher = more cells survive; conditions: first compound 2.53 µM
property measured: relative viability
Please respond with just the number, no unit label.

Give the reported relative viability for Nc1cccc2c1CN(C1CCC(=O)NC1=O)C2=O (centres undefined) [Lenalidomide] + COc1cccc2cc(-c3nc([C@H]4CC[C@H](C(=O)O)CC4)n4ncnc(N)c34)[nH]c12 [OSI-027] (partner 0.5 µM) (system: SW 1573). 0.792

Give the reported relative viability for Nc1cccc2c1CN(C1CCC(=O)NC1=O)C2=O (centres undefined) [Lenalidomide] + CCNC(=O)c1noc(-c2cc(C(C)C)c(O)cc2O)c1-c1ccc(CN2CCOCC2)cc1 [Luminespib] (partner 0.01 µM) (system: SW 1573). 0.162

Give the reported relative viability for Nc1cccc2c1CN(C1CCC(=O)NC1=O)C2=O (centres undefined) [Lenalidomide] + O=C(c1cc(Cc2n[nH]c(=O)c3ccccc23)ccc1F)N1CCN(C(=O)C2CC2)CC1 [Olaparib] (partner 8 µM) (system: SW 1573). 0.468

Give the reported relative viability for Nc1cccc2c1CN(C1CCC(=O)NC1=O)C2=O (centres undefined) [Lenalidomide] + C[C@@H](Oc1cc(-c2cnn(C3CCNCC3)c2)cnc1N)c1c(Cl)ccc(F)c1Cl [Crizotinib] (partner 1 µM) (system: SW 1573). 0.766

###

tested on: NCI-H596; assay: relative viability (nuclei count vs DMSO), 5 days (fraction); higher = more cells survive; conditions: first compound 0.001 µM
property measured: relative viability
Please respond with just the number, no unit label.

Name the recorded relative viability for Cc1cn(-c2cc(NC(=O)c3ccc(C)c(Nc4nccc(-c5cccnc5)n4)c3)cc(C(F)(F)F)c2)cn1 [Nilotinib] + Cc1nc(Nc2ncc(C(=O)Nc3c(C)cccc3Cl)s2)cc(N2CCN(CCO)CC2)n1 [Dasatinib] (partner 0.075 µM) . 0.485

Name the recorded relative viability for Cc1cn(-c2cc(NC(=O)c3ccc(C)c(Nc4nccc(-c5cccnc5)n4)c3)cc(C(F)(F)F)c2)cn1 [Nilotinib] + CS(=O)(=O)N1CCN(Cc2cc3nc(-c4cccc5[nH]ncc45)nc(N4CCOCC4)c3s2)CC1 [Pictilisib] (partner 1 µM) . 0.352

Name the recorded relative viability for Cc1cn(-c2cc(NC(=O)c3ccc(C)c(Nc4nccc(-c5cccnc5)n4)c3)cc(C(F)(F)F)c2)cn1 [Nilotinib] + CCNC(=O)c1noc(-c2cc(C(C)C)c(O)cc2O)c1-c1ccc(CN2CCOCC2)cc1 [Luminespib] (partner 0.01 µM) . 1.16

Name the recorded relative viability for Cc1cn(-c2cc(NC(=O)c3ccc(C)c(Nc4nccc(-c5cccnc5)n4)c3)cc(C(F)(F)F)c2)cn1 [Nilotinib] + CC(=O)Nc1cccc(-n2c(=O)n(C3CC3)c(=O)c3c(Nc4ccc(I)cc4F)n(C)c(=O)c(C)c32)c1 [Trametinib] (partner 0.02 µM) . 0.67

Name the recorded relative viability for Cc1cn(-c2cc(NC(=O)c3ccc(C)c(Nc4nccc(-c5cccnc5)n4)c3)cc(C(F)(F)F)c2)cn1 [Nilotinib] + O=C(CCCCCCC(=O)Nc1ccccc1)NO [Vorinostat] (partner 1 µM) . 0.518

###

tested on: NCI-H2085; experiment: relative viability (nuclei count vs DMSO), 5 days (fraction); higher = more cells survive; settings: first compound 0.1 µM
Label key: YES means relative viability under 0.6; NO means relative viability of 0.6 or more.

Just wondering, is relative viability of Cc1cn(-c2cc(NC(=O)c3ccc(C)c(Nc4nccc(-c5cccnc5)n4)c3)cc(C(F)(F)F)c2)cn1 [Nilotinib] + Cc1nc(NC(=O)N2CCC[C@H]2C(N)=O)sc1-c1ccnc(C(C)(C)C(F)(F)F)c1 [Alpelisib] (partner 2 µM) below 0.6? NO

Just wondering, is relative viability of Cc1cn(-c2cc(NC(=O)c3ccc(C)c(Nc4nccc(-c5cccnc5)n4)c3)cc(C(F)(F)F)c2)cn1 [Nilotinib] + C[C@]1(O)C[C@@H](c2nc(-c3ccc4ccc(-c5ccccc5)nc4c3)c3c(N)nccn32)C1 [Linsitinib] (partner 1 µM) below 0.6? NO

Just wondering, is relative viability of Cc1cn(-c2cc(NC(=O)c3ccc(C)c(Nc4nccc(-c5cccnc5)n4)c3)cc(C(F)(F)F)c2)cn1 [Nilotinib] + COc1cccc2cc(-c3nc([C@H]4CC[C@H](C(=O)O)CC4)n4ncnc(N)c34)[nH]c12 [OSI-027] (partner 0.5 µM) below 0.6? YES

Just wondering, is relative viability of Cc1cn(-c2cc(NC(=O)c3ccc(C)c(Nc4nccc(-c5cccnc5)n4)c3)cc(C(F)(F)F)c2)cn1 [Nilotinib] + CC(=O)Nc1cccc(-n2c(=O)n(C3CC3)c(=O)c3c(Nc4ccc(I)cc4F)n(C)c(=O)c(C)c32)c1 [Trametinib] (partner 0.02 µM) below 0.6? YES

Just wondering, is relative viability of Cc1cn(-c2cc(NC(=O)c3ccc(C)c(Nc4nccc(-c5cccnc5)n4)c3)cc(C(F)(F)F)c2)cn1 [Nilotinib] + COc1cc2c(Oc3ccc(NC(=O)C4(C(=O)Nc5ccc(F)cc5)CC4)cc3F)ccnc2cc1OCCCN1CCOCC1 [Foretinib] (partner 0.25 µM) below 0.6? NO
